Target: T1, human soluble urokinase plasminogen activator receptor (suPAR) (human, UniProt Q03405 23-303, limits assumed)
T1 construct: Column head says only 'human'; also called human suPAR; hsuPAR
T1 sequence (Q03405 23-303 limits assumed): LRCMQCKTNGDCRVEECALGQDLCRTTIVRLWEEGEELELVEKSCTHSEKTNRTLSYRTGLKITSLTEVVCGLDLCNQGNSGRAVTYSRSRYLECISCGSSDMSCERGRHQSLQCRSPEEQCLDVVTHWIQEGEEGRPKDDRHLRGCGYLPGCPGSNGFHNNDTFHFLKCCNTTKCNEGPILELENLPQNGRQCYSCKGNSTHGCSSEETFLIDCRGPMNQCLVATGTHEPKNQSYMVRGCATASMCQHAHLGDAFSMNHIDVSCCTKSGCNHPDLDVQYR
Test: BLI (Octet) off-rate screen of scFv clones

{"binder": "suPAR_DB02_G09 (scFv, V domains shown, scFv clone from phage display) VH: QVQLVQSGAEVKKPGASVKVSCKASGFTIKDYYMHWVRQAPGQGLEWMGWIDPSNGATNSAQNFQGRVTMTRDTSTSTVYMELSSLRSEDTAVYYCARGYDVDWFVYWGQGTLVTVSS VL: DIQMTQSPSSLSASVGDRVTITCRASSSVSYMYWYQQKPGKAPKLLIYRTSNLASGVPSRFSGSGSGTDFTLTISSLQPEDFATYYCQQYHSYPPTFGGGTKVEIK", "koff, s⁻¹": 0.00733}
{"binder": "suPAR_DB02_F06 (scFv, V domains shown, scFv clone from phage display) VH: QVQLVQSGAEVKKPGASVKVSCKASGFNFTDYYIHWVRQAPGQGLEWMGWIDPNSGSTNYAQNFQGRVTMTRDTSTSTVYMELSSLRSEDTAVYYCARGYMVDWFVYWGQGTLVTVSS VL: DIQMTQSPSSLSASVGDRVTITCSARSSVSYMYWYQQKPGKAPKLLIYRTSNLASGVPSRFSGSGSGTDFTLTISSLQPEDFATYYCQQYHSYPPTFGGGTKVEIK", "koff, s⁻¹": 0.00495}
{"binder": "suPAR_DB02_E05 (scFv, V domains shown, scFv clone from phage display) VH: QVQLVQSGAEVKKPGASVKVSCKASGFNIKDYYIHWVRQAPGQGLEWMGWVDPSSGATDYAQKFQGRVTMTRDTSTSTVYMELSSLRSEDTAVYYCARGYDVDWFVYWGQGTLVTVSS VL: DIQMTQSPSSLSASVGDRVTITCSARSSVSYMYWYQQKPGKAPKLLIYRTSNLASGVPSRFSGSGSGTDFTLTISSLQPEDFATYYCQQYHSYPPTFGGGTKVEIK", "koff, s⁻¹": 0.00239}
{"binder": "suPAR_DB02_F04 (scFv, V domains shown, scFv clone from phage display) VH: QVQLVQSGAEVKKPGASVKVSCKASGYTLTSYYVHWVRQAPGQGLEWMGWIDPKSGDTKYAHKFQGRVTMTRDTSTSTVYMELSSLRSEDTAVYYCARGYDVDWFVYWGQGTLVTVSS VL: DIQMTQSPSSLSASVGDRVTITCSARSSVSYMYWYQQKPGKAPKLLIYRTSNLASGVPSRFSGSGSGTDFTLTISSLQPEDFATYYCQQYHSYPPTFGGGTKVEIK", "koff, s⁻¹": 0.00384}
